System: CD2F1 mice, L1210 leukemia ip, survival T/C
Experiment: NCI In Vivo Anticancer Drug Screen. Data for tumor model L1210 Leukemia (intraperitoneal) in CD2F1 (CDF1) mice
Settings: endpoint: mean survival time; dose: 50.0 mg/kg/injection; schedule: Q01DX009 (ip); vehicle: other; higher = longer survival
Inconclusive results and toxic doses are left out.
T/C: recorded values

{"compound": "CC(C)(C)c1ccc(O)c(Sc2cc(C(C)(C)C)ccc2O)c1", "T/C": "96 % of control"}
{"compound": "Cc1c2ccncc2c(C)c2c1[nH]c1ccccc12", "T/C": "92 % of control"}
{"compound": "CCOC(=O)c1ccc(NC(N)=S)cc1", "T/C": "98 % of control"}
{"compound": "CCOC(=O)CN1C(=O)c2ccccc2C1=O", "T/C": "98 % of control"}
{"compound": "CCOC(=O)C1C(=O)N(Cc2ccccc2)C(=O)N1C (stereo unspecified)", "T/C": "100 % of control"}
{"compound": "CN(C(=O)Nc1ccccc1)c1ccccc1", "T/C": "104 % of control"}

====

Test system: CD2F1 mice, L1210 leukemia ip, survival T/C
Assay: NCI In Vivo Anticancer Drug Screen. Data for tumor model L1210 Leukemia (intraperitoneal) in CD2F1 (CDF1) mice
Details: endpoint: mean survival time; dose: 400.0 mg/kg/injection; schedule: Q01DX009 (ip); vehicle: saline with Tween-80; higher = longer survival
Inconclusive results and toxic doses are left out.
T/C: recorded values

{"molecule": "COCCNc1ccc([N+](=O)[O-])cc1[N+](=O)[O-]", "measured target": "CD2F1 mice, L1210 leukemia ip, survival T/C", "T/C": "91 % of control"}
{"molecule": "O=C(Nc1cccc(Cl)c1)c1ccccc1", "measured target": "CD2F1 mice, L1210 leukemia ip, survival T/C", "T/C": "98 % of control"}
{"molecule": "O=C1c2c(O)ccc(O)c2C(=O)c2c(NCCO)ccc(NCCO)c21", "measured target": "CD2F1 mice, L1210 leukemia ip, survival T/C", "T/C": "113 % of control"}
{"molecule": "O=C(CNC(=O)NCc1ccco1)NNC(=O)Nc1ccc(F)c(Cl)c1", "measured target": "CD2F1 mice, L1210 leukemia ip, survival T/C", "T/C": "96 % of control"}
{"molecule": "O=C(O)c1ccccc1C(=O)OC1CCC2CCCCC2C1 (stereo unspecified)", "measured target": "CD2F1 mice, L1210 leukemia ip, survival T/C", "T/C": "98 % of control"}
{"molecule": "O=C1c2ccccc2C(=O)N1C1C=CC=CC=C1", "measured target": "CD2F1 mice, L1210 leukemia ip, survival T/C", "T/C": "96 % of control"}
{"molecule": "C(=N/N=C/c1ccc2c(c1)OCO2)/c1ccco1", "measured target": "CD2F1 mice, L1210 leukemia ip, survival T/C", "T/C": "86 % of control"}
{"molecule": "N#CC(C#N)=C1c2ccccc2C(=O)c2ccccc21", "measured target": "CD2F1 mice, L1210 leukemia ip, survival T/C", "T/C": "90 % of control"}
{"molecule": "O=C1OC(c2ccccc2)c2ccccc21 (stereo unspecified)", "measured target": "CD2F1 mice, L1210 leukemia ip, survival T/C", "T/C": "92 % of control"}
{"molecule": "O=C1CC2C=CCC12 (stereo unspecified)", "measured target": "CD2F1 mice, L1210 leukemia ip, survival T/C", "T/C": "100 % of control"}
{"molecule": "COC(=O)C(C)CC(C)(C=O)OC (stereo unspecified)", "measured target": "CD2F1 mice, L1210 leukemia ip, survival T/C", "T/C": "96 % of control"}
{"molecule": "CCc1cc(C)cc(OC(=O)Nc2ccc(Cl)cc2)c1", "measured target": "CD2F1 mice, L1210 leukemia ip, survival T/C", "T/C": "96 % of control"}
{"molecule": "Cc1cnccc1N=Nc1ccc(N(C)C)cc1", "measured target": "CD2F1 mice, L1210 leukemia ip, survival T/C", "T/C": "96 % of control"}
{"molecule": "COC1CCC(/C=C(\\C#N)C2CCC(C)CC2)CC1 (stereo unspecified)", "measured target": "CD2F1 mice, L1210 leukemia ip, survival T/C", "T/C": "92 % of control"}
{"molecule": "O=C1CCCC1(c1ccccc1)c1ccccc1", "measured target": "CD2F1 mice, L1210 leukemia ip, survival T/C", "T/C": "95 % of control"}
{"molecule": "CCOC(=O)C(Cc1ccc(OC)c(OC)c1)C(Cc1ccc(OC)c(OC)c1)C(=O)OCC (stereo unspecified)", "measured target": "CD2F1 mice, L1210 leukemia ip, survival T/C", "T/C": "96 % of control"}
{"molecule": "CC(C)(C(=O)c1ccccc1)C(=O)c1ccccc1", "measured target": "CD2F1 mice, L1210 leukemia ip, survival T/C", "T/C": "98 % of control"}
{"molecule": "CN(C)C(=O)C(=O)C1C=Cc2ccccc21 (stereo unspecified)", "measured target": "CD2F1 mice, L1210 leukemia ip, survival T/C", "T/C": "93 % of control"}
{"molecule": "O=[N+]([O-])c1cc(S(=O)(=O)c2ccc(N3CCCC3)c([N+](=O)[O-])c2)ccc1N1CCCC1", "measured target": "CD2F1 mice, L1210 leukemia ip, survival T/C", "T/C": "104 % of control"}
{"molecule": "O=C1NC(=O)C2CCCCC12 (stereo unspecified)", "measured target": "CD2F1 mice, L1210 leukemia ip, survival T/C", "T/C": "95 % of control"}
{"molecule": "CCOC(=O)NC1CC(OC(=O)c2ccc(C)cc2)C(COC(=O)c2ccc(C)cc2)O1 (stereo unspecified)", "measured target": "CD2F1 mice, L1210 leukemia ip, survival T/C", "T/C": "100 % of control"}
{"molecule": "CCOC(=O)Nc1ccc(F)cc1F", "measured target": "CD2F1 mice, L1210 leukemia ip, survival T/C", "T/C": "100 % of control"}
{"molecule": "CCCCCCCCN(C)Cc1cc(C(C)(C)C)cc(-c2ccccc2)c1O", "measured target": "CD2F1 mice, L1210 leukemia ip, survival T/C", "T/C": "96 % of control"}
{"molecule": "Clc1ccc(CN2CN(Cc3ccc(Cl)cc3)CN(Cc3ccc(Cl)cc3)C2)cc1", "measured target": "CD2F1 mice, L1210 leukemia ip, survival T/C", "T/C": "100 % of control"}
{"molecule": "CN(C)/C=N/NC(=O)C(O)c1ccccc1 (stereo unspecified)", "measured target": "CD2F1 mice, L1210 leukemia ip, survival T/C", "T/C": "100 % of control"}
{"molecule": "O=C(O)CCOc1ccc([N+](=O)[O-])cc1", "measured target": "CD2F1 mice, L1210 leukemia ip, survival T/C", "T/C": "94 % of control"}
